Tested on: U937 cells
EXPERIMENT_DESCRIPTION: Cell growth inhibition, U937
Assay type: cell-based, human
EXPERIMENTAL_SETUP: Homo sapiens, U-937; U937, sodium salt form
READOUT_TYPE: pIC50
Numbers only, as −log10 of the molar value.

Record CCCCCCCC/C=C\CCCCCCC(O)C(=O)O (racemic) [2OHOA, 2-hydroxyoleic acid] , field pIC50: 3.74

###

Tested on: HepG2 cells
EXPERIMENT_DESCRIPTION: Cell growth inhibition, HepG2
Format: cell-based, human
EXPERIMENTAL_SETUP: Homo sapiens; HepG2, sodium salt form
READOUT_TYPE: pIC50
One number for each entry, as −log10 of the molar value.

Entry under test: CCCCCCCC/C=C\CCCCCCC(O)C(=O)O (racemic) [2OHOA, 2-hydroxyoleic acid] . Its pIC50 was 4.38

src = patent US9359281B2
